- tgt: histamine H3 receptor (Homo sapiens, UniProt Q9Y5N1)
- Construct: clone 3H3; membranes
- Sequence (Q9Y5N1 whole entry): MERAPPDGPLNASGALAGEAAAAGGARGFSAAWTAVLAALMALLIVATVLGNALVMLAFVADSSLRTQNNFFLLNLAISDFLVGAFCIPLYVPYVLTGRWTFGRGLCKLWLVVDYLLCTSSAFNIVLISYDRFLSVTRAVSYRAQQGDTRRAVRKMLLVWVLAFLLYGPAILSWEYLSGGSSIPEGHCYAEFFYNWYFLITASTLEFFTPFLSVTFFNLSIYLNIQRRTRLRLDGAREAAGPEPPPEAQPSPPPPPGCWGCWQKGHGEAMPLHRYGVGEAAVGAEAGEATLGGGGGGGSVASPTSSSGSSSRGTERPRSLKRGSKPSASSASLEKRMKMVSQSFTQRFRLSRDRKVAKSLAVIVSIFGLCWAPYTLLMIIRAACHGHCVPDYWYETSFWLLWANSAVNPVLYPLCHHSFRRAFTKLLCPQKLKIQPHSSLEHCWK
- experiment: Histamine H3 functional antagonist assay ([35S]GTPγS, SPA, membranes of CHO K1 cells expressing the receptor)
- reportedConditions: histamine-stimulated GTPγS binding, membranes with human H3
Where a name gives a salt, the structure may show the parent alone.
recordedMetric: Ki

# Ki lookup, item CC(C)N1CCC(OC2CCN(c3ccc(C(=O)N4CCCC4)nc3)CC2)CC1
≤ 1 nM

New cases:
Please look up its Ki: CC(C)N1CCC(OC2CCN(c3ccc(C#N)cn3)CC2)CC1 [Example E1, hydrochloride]
< 10 nM

Follow-up item: CC(C)N1CCC(OC2CCN(c3ccc(C(=O)N4CCCCC4)cc3)CC2)CC1
≤ 1 nM

What do you have for CC(C)N1CCC(OC2CCN(c3ccc(-c4ncco4)cc3)CC2)CC1 ?
< 10 nM

Note, next up: CNC(=O)c1ccc(N2CCC(OC3CCN(C4CCC4)CC3)CC2)cc1 [Example E6, hydrochloride]
≤ 1 nM

Moving on to the next molecule: CC(C)N1CCC(OC2CCN(c3ccc(C(=O)NCCCCl)cc3)CC2)CC1 [Example E106, hydrochloride]
≤ 1 nM

Would you mind doing CCCNC(=O)c1cnc(N2CCC(OC3CCN(C(C)C)CC3)CC2)cn1 as well?
≤ 1 nM

Moving on to Cc1cc(-c2ccc(N3CCC(OC4CCN(C(C)C)CC4)CC3)cc2)on1
≤ 1 nM

Also need CCCNC(=O)c1ccc(N2CCC(OC3CCN(C(C)C)CC3)CC2)cn1 , thanks.
≤ 1 nM
